Data provenance: ChEMBL document CHEMBL4665682

pIC50: −log10 of the molar value.
test-readout: pIC50

Lookup: Write down the reported pIC50 of [N-]=[N+]=NS(=O)(=O)c1ccc(NCCSc2ccccc2)c([N+](=O)[O-])c1 , test system: Bcl-2-like protein 1 (Homo sapiens, UniProt Q07817).
Sequence (Q07817 whole entry): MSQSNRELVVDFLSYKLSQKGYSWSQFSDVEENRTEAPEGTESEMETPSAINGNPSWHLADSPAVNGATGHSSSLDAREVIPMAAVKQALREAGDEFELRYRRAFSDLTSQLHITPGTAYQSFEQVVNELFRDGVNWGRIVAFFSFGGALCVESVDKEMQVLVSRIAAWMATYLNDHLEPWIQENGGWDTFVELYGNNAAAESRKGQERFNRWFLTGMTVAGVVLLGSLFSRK
Found: < 4.00

----------
# system: Histone deacetylase 8 (Homo sapiens, UniProt Q9BY41)
# Sequence (Q9BY41 whole entry): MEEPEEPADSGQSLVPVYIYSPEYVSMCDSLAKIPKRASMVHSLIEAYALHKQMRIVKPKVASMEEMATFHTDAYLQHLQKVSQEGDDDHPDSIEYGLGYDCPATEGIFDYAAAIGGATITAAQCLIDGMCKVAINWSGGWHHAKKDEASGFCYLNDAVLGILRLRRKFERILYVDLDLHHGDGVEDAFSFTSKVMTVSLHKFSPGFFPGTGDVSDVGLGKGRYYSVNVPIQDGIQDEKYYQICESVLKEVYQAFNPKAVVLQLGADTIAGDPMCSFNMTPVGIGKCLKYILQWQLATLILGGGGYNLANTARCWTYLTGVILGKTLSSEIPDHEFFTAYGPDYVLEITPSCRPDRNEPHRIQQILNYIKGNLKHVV
test-readout: pIC50
Remember the convention: pIC50 equals -log10 of concentration in molar.

Lookup: Returns the measured pIC50 for the input molecule. Input: C#Cc1ccc(C(=O)NO)s1
Found: 6.00

----------
For each of the compounds below, state its Ki.
# protocol-summary: Inhibition of avidin (unknown origin)
Form entry: value (µM) — number only.

Lookup: Returns the measured Ki for the input compound. Input: C[C@@H]1NC(=O)N[C@@H]1CCCCCC(=O)O
Found: 4.1e-07

Lookup: Returns the measured Ki for the input compound. Input: CCCCCC(=O)O [HEXANOATE]
Found: 260

Lookup: Returns the measured Ki for the input compound. Input: C[C@H]1CNC(=O)N1
Found: 34

----------
For each of the compounds below, state its Kd.
# protocol-summary: Binding affinity to FKBP (unknown origin) by 15N-HSQC-NMR spectroscopy
# Parameters: species or system Homo sapiens
Answer format: value, then unit.

Lookup: Returns the measured Kd for the input compound. Input: O=C(Nc1ccc(O)cc1)c1ccc(O)cc1
Found: 100 µM

Lookup: Returns the measured Kd for the input compound. Input: COC(=O)[C@@H]1CCCCN1C(=O)C(=O)c1cc(OC)c(OC)c(OC)c1
Found: 2 µM

----------
# system: Acetylcholinesterase (Mus musculus, UniProt P21836)
# Sequence (P21836 whole entry): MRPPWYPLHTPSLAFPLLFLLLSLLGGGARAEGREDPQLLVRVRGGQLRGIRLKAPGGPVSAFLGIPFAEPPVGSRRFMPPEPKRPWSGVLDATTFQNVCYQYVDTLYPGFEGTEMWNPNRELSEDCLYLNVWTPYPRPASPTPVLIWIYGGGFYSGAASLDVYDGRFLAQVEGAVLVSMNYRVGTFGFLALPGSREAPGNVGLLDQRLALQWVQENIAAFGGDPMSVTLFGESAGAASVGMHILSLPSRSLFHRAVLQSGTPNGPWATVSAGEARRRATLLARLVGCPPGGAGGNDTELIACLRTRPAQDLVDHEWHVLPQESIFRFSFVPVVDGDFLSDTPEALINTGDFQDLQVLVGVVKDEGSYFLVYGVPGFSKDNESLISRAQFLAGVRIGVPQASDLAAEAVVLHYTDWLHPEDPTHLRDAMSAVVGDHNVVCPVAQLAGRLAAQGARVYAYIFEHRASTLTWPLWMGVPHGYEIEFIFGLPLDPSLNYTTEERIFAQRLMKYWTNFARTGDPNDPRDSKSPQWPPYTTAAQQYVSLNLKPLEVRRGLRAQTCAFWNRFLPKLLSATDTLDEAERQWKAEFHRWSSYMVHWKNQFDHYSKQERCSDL
test-readout: pKd
Remember the convention: pKd equals -log10 of concentration in molar.

Lookup: Returns the measured pKd for the input compound. Input: C#CCCCCCC[n+]1c(-c2ccccc2)c2cc(N)ccc2c2ccc(N)cc21
Found: 2.00

----------
test-readout: pIC50
Remember the convention: pIC50 equals -log10 of concentration in molar.

Lookup: Write down the reported pIC50 of CSc1ccccc1C1CCCN1C(=O)C(NC(=O)NCc1ccc(N)cc1)c1ccccc1 (configuration not stated) , test system: Peptidyl-prolyl cis-trans isomerase B (Homo sapiens, UniProt P23284).
Sequence (P23284 whole entry): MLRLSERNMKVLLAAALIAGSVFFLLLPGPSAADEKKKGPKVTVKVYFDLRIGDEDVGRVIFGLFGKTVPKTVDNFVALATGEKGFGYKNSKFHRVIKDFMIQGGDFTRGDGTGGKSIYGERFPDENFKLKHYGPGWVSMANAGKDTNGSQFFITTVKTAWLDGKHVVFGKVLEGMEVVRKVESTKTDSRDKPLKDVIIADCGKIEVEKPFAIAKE
Found: 7.10

----------
# system: Acetylcholinesterase (Rattus norvegicus, UniProt P37136)
# Sequence (P37136 whole entry): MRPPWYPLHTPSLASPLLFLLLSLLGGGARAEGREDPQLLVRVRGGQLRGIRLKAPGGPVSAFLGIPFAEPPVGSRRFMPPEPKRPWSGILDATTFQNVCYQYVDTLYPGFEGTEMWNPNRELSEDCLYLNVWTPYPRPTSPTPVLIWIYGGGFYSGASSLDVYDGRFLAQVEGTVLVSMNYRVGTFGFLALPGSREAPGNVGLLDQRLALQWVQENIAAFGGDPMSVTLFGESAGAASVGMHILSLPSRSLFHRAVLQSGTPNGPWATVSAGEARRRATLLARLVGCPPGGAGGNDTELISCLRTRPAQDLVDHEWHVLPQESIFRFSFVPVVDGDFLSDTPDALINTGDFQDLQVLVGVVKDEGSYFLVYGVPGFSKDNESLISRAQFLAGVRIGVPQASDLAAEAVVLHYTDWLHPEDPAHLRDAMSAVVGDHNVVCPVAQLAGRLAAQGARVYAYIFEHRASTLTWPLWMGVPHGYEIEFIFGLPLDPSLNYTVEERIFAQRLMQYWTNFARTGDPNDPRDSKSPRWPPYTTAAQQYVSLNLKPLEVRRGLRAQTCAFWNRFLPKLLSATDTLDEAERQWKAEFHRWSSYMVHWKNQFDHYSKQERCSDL
test-readout: IC50 (nM)
Form entry: value (nM) — number only.

Lookup: Returns the measured IC50 for the input molecule. Input: c1ccc2c(NCCCCCCNc3c4c(nc5ccccc35)CCCC4)c3c(nc2c1)CCCC3
Found: 0.4

----------
# system: Glycylpeptide N-tetradecanoyltransferase 1 (Homo sapiens, UniProt P30419)
# Sequence (P30419 whole entry): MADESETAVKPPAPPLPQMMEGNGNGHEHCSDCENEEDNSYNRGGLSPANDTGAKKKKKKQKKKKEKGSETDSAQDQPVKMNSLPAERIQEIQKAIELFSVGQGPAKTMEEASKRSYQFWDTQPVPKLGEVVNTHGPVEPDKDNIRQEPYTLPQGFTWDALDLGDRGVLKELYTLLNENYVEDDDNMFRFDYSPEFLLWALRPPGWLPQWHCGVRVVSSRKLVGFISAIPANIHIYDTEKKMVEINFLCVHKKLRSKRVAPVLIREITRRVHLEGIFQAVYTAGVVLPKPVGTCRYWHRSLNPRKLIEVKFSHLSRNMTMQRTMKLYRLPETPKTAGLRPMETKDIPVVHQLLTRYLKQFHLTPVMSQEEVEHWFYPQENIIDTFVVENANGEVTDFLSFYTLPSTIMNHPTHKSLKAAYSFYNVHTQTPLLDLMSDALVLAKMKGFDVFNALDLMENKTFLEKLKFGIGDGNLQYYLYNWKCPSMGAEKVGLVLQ
pIC50: −log10 of the molar value.
test-readout: pIC50

Lookup: Returns the measured pIC50 for the input molecule. Input: Cc1nn(C)c(C)c1CCOc1c(-c2ccc3c(c2)c(CN(C)C)nn3C)ccc(F)c1F
Found: > 9.00

----------
# protocol-summary: Antagonist activity at IL-2/IL-2RA (unknown origin) assessed as reduction in IL-2/IL-2RA protein-protein interaction by scintillation proximity assay
# Parameters: species or system Homo sapiens
test-readout: pIC50
Remember the convention: pIC50 equals -log10 of concentration in molar.

Lookup: Returns the measured pIC50 for the input molecule. Input: CC(C)C[C@@H](NC(=N)N)C(=O)NCC(=O)N1CCC(c2cc(-c3ccc(OCc4ccc(C(=O)O)o4)c(Cl)c3Cl)nn2C)CC1
Found: 7.22

Lookup: Returns the measured pIC50 for the input molecule. Input: CC(C)C[C@@H](N=C(N)N)C(=O)NCC(=O)N1CCC(c2cc(-c3cccc(Cl)c3Cl)nn2C)CC1
Found: 5.52

----------
For each of the molecules below, state its pKd.
# protocol-summary: Binding affinity to His6-tagged Mycobacterium tuberculosis pantothenate synthetase expressed in Escherichia coli C41(DE3) measured over 30 mins by isothermal titration calorimetry
Remember the convention: pKd equals -log10 of concentration in molar.

Lookup: Returns the measured pKd for the input molecule. Input: O=C(O)c1cc2ccccc2o1
Found: 3.00

Lookup: Returns the measured pKd for the input molecule. Input: COc1ccc2c(ccn2CC(=O)O)c1
Found: 3.30

----------
# protocol-summary: Binding affinity to 23S rRNA U1061A mutant (unknown origin) by mass spectrometry
pKd: −log10 of the molar value.
test-readout: pKd

Lookup: Returns the measured pKd for the input compound. Input: NCC[C@@H](NC(=O)c1ccco1)C(=O)N1CCNCC1
Found: < 4.00

Lookup: Returns the measured pKd for the input compound. Input: NCC[C@@H](NC(=O)c1ccc(-c2cccc(NC(=O)c3ccc4nc(O)c(O)nc4c3)c2)o1)C(=O)N1CCNCC1
Found: 5.19

Lookup: Returns the measured pKd for the input compound. Input: O=C(O)c1ccc2nc(O)c(O)nc2c1
Found: < 4.00

----------
For each of the compounds below, state its IC50.
# system: CDK2/Cyclin A2 (Homo sapiens)
# protocol-summary: Inhibition of CDK2/Cyclin A (unknown origin) using histone H1 as substrate by scintillation counting method

Lookup: Returns the measured IC50 for the input compound. Input: O=C1Nc2ccc(Cl)cc2C1=O
Found: > 1000 µM

Lookup: Returns the measured IC50 for the input compound. Input: NNc1ccc(S(N)(=O)=O)cc1
Found: > 1000 µM

----------
# protocol-summary: Inhibition of human lung tryptase using Tosyl-Gly-Pro-Arg-p-nitroanilide as substrate preincubated for 5 mins followed by substrate addition and measured after 15 mins
test-readout: Ki (µM)
Form entry: value (µM) — number only.

Lookup: Returns the measured Ki for the input molecule. Input: N=C(N)c1ccccc1
Found: 22
